All values here come from PubChem BioAssay AID2060602.

For each entry below, report its viability, T/C value.
Tested on: 648629-189-R-J1-PDC complex spheroids viability
Assay: Anticancer human tumor 648629-189-R-J1-PDC patient-derived bladder carcinoma cell line growth inhibition [CLK]
Conditions: second compound 0.1 µM; first compound 10 µM; stronger effect = lower value
Description: A high-throughput screen of multi-cell type tumor spheroids was designed to identify active combinations of […] and targeted small molecules. Complex spheroids include a stromal component modeled by human endothelial cells (HUVEC) and fibroblasts modeled by human mesenchymal stem cells (MSCs). […] Compounds. […] If the clinical Cmax for an agent had not been determined, the highest concentration tested was 10 microM. […]
Give the value, in units of %, as a plain number.

Ask: Identify the reported viability, T/C for the following entry. COc1cccc2c1C(=O)c1c(O)c3c(c(O)c1C2=O)CC(O)(C(=O)CO)CC3OC1CC(N)C(O)C(C)O1 (stereo not given) + CNC(=O)c1ccc(Nc2nc(OC3CCCC3)c3c(-c4ccc5nc(C)oc5c4)c[nH]c3n2)c(OC)c1
Reply: 2.64

Ask: Give the reported viability, T/C for this compound. CC1COCCN1c1cc(C2(S(C)(=N)=O)CC2)nc(-c2ccnc3[nH]ccc23)n1 (stereo not given) + CNC(=O)c1ccc(Nc2nc(OC3CCCC3)c3c(-c4ccc5nc(C)oc5c4)c[nH]c3n2)c(OC)c1
Reply: 21.3

Ask: State its viability, T/C: COc1cccc2c1C(=O)c1c(O)c3c(c(O)c1C2=O)CC(O)(C(=O)CO)CC3OC1CC(N)C(O)C(C)O1 (stereo not given) + CN1CCN(c2cc(C(=O)Nc3cc4cc(-c5cnn(C)c5)ccc4cn3)ccn2)CC1
Reply: 0.19

Ask: Kindly indicate its recorded viability, T/C. Item: Nc1ccn(C2OC(CO)C(O)C2(F)F)c(=O)n1 (stereo not given) + CNC(=O)c1ccc(Nc2nc(OC3CCCC3)c3c(-c4ccc5nc(C)oc5c4)c[nH]c3n2)c(OC)c1
Reply: 5.88

Ask: Report measured viability, T/C; entry is O=C(c1cc(Cc2n[nH]c(=O)c3ccccc23)ccc1F)N1CCN(C(=O)C2CC2)CC1 + CN1CCN(c2cc(C(=O)Nc3cc4cc(-c5cnn(C)c5)ccc4cn3)ccn2)CC1
Reply: 68.2

----------
Consider the following compounds; for each one, report its viability, T/C.
Test system: 648629-189-R-J1-PDC complex spheroids viability
Assay: Anticancer human tumor 648629-189-R-J1-PDC cell line growth inhibition [CLK];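 for viability, T/C: drug exposure lasted seven days before viability readout; 100% = DMSO vehicle control wells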
Details: second compound 3.16 µM; first compound 0.0949 µM; stronger effect = lower value
Report the value in % with no unit label.

Ask: Annotate the compound CC(C)CC(NC(=O)C(Cc1ccccc1)NC(=O)c1cnccn1)B(O)O (stereo unspecified) + CN1CCN(c2cc(C(=O)Nc3cc4cc(-c5cnn(C)c5)ccc4cn3)ccn2)CC1 with its measured viability, T/C.
Reply: 1.36

Ask: Provide measured viability, T/C value, entry: CC(C)CC(NC(=O)C(Cc1ccccc1)NC(=O)c1cnccn1)B(O)O (stereo unspecified) + CNC(=O)c1ccc(Nc2nc(OC3CCCC3)c3c(-c4ccc5nc(C)oc5c4)c[nH]c3n2)c(OC)c1
Reply: 1.49

Ask: For the compound NC(=O)C(=Cn1cnc(-c2cc(C(F)(F)F)cc(C(F)(F)F)c2)n1)c1cncnc1 + CNC(=O)c1ccc(Nc2nc(OC3CCCC3)c3c(-c4ccc5nc(C)oc5c4)c[nH]c3n2)c(OC)c1 , give its measured viability, T/C value.
Reply: 5.56

Ask: Report viability, T/C, nothing else, for this compound: C=CC(=O)Nc1cc(Nc2nccc(-c3cn(C)c4ccccc34)n2)c(OC)cc1N(C)CCN(C)C + CNC(=O)c1ccc(Nc2nc(OC3CCCC3)c3c(-c4ccc5nc(C)oc5c4)c[nH]c3n2)c(OC)c1
Reply: 16.3

Ask: Give viability, T/C for NC(=O)C(=Cn1cnc(-c2cc(C(F)(F)F)cc(C(F)(F)F)c2)n1)c1cncnc1 + CN1CCN(c2cc(C(=O)Nc3cc4cc(-c5cnn(C)c5)ccc4cn3)ccn2)CC1
Reply: 0.12

Ask: For the compound C=CC(=O)Nc1cc(Nc2nccc(-c3cn(C)c4ccccc34)n2)c(OC)cc1N(C)CCN(C)C + CN1CCN(c2cc(C(=O)Nc3cc4cc(-c5cnn(C)c5)ccc4cn3)ccn2)CC1 , give its reported viability, T/C.
Reply: 0.82

----------
Could you please report measured viability, T/C for the items listed next?
Test system: 648629-189-R-J1-PDC complex spheroids viability
Assay: Anticancer human tumor 648629-189-R-J1-PDC cell line growth inhibition [CLK];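 for viability, T/C: drug exposure lasted seven days before viability readout; 100% = DMSO vehicle control wells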
Conditions: second compound 0.1 µM; first compound 0.003 µM; stronger effect = lower value
Give the value, in units of %, as a plain number.

Ask: For CC(C)CC(NC(=O)C(Cc1ccccc1)NC(=O)c1cnccn1)B(O)O (centres undefined) + CNC(=O)c1ccc(Nc2nc(OC3CCCC3)c3c(-c4ccc5nc(C)oc5c4)c[nH]c3n2)c(OC)c1 , write its viability, T/C.
Reply: 35

Ask: State its viability, T/C for this compound: CC(C)CC(NC(=O)C(Cc1ccccc1)NC(=O)c1cnccn1)B(O)O (centres undefined) + CN1CCN(c2cc(C(=O)Nc3cc4cc(-c5cnn(C)c5)ccc4cn3)ccn2)CC1
Reply: 82.8

Ask: Give a short answer stating reported viability, T/C for C=CC(=O)Nc1cc(Nc2nccc(-c3cn(C)c4ccccc34)n2)c(OC)cc1N(C)CCN(C)C + CN1CCN(c2cc(C(=O)Nc3cc4cc(-c5cnn(C)c5)ccc4cn3)ccn2)CC1 .
Reply: 117

Ask: Give the reported viability, T/C for this compound. C=CC(=O)Nc1cc(Nc2nccc(-c3cn(C)c4ccccc34)n2)c(OC)cc1N(C)CCN(C)C + CNC(=O)c1ccc(Nc2nc(OC3CCCC3)c3c(-c4ccc5nc(C)oc5c4)c[nH]c3n2)c(OC)c1
Reply: 73.5

----------
Test system: 648629-189-R-J1-PDC complex spheroids viability
Experiment: Anticancer human tumor 648629-189-R-J1-PDC cell line growth inhibition [CLK]
Conditions: curve of first compound; second compound 0.1 µM
Rule: IC50 below 2 µM gives label 1, anything at or above gives label 0.

Ask: Does CC(Nc1ccc2c(c1)OCCn1cc(N3C(=O)OCC3C(F)F)nc1-2)C(N)=O (stereo unspecified) + CNC(=O)c1ccc(Nc2nc(OC3CCCC3)c3c(-c4ccc5nc(C)oc5c4)c[nH]c3n2)c(OC)c1 have IC50 strictly under 2 µM?
Reply: label 0

Ask: Consider the compound Nc1ccccc1NC(=O)c1ccc(CNC(=O)OCc2cccnc2)cc1 + CNC(=O)c1ccc(Nc2nc(OC3CCCC3)c3c(-c4ccc5nc(C)oc5c4)c[nH]c3n2)c(OC)c1 . Is its IC50 strictly less than 2 µM?
Reply: label 1

Ask: Hi there! Is IC50 for NC(=O)C(=Cn1cnc(-c2cc(C(F)(F)F)cc(C(F)(F)F)c2)n1)c1cncnc1 + CNC(=O)c1ccc(Nc2nc(OC3CCCC3)c3c(-c4ccc5nc(C)oc5c4)c[nH]c3n2)c(OC)c1 below 2 µM, do you know?
Reply: label 1

Ask: Take the compound CCc1c2c(nc3ccc(O)cc13)-c1cc3c(c(=O)n1C2)COC(=O)[C@]3(O)CC + CNC(=O)c1ccc(Nc2nc(OC3CCCC3)c3c(-c4ccc5nc(C)oc5c4)c[nH]c3n2)c(OC)c1 and say whether its IC50 is less than 2 µM.
Reply: label 1

Ask: Answer whether the compound COc1ccc([C@@H](O)c2cc(-c3ncnc4cc(N5CCOCC5)ccc34)c(F)cc2Cl)nn1 + CNC(=O)c1ccc(Nc2nc(OC3CCCC3)c3c(-c4ccc5nc(C)oc5c4)c[nH]c3n2)c(OC)c1 has IC50 strictly less than 2 µM
Reply: label 0

Ask: Problem: For the compound C#Cc1c(F)ccc2cc(O)cc(-c3ncc4c(N5CC6CCC(C5)N6)nc(OCC56CCCN5CC(F)C6)nc4c3F)c12 (stereo unspecified) + CNC(=O)c1ccc(Nc2nc(OC3CCCC3)c3c(-c4ccc5nc(C)oc5c4)c[nH]c3n2)c(OC)c1 , is IC50 under 2 µM?
Reply: label 0

----------
Tested on: 648629-189-R-J1-PDC complex spheroids viability
Assay: Anticancer human tumor 648629-189-R-J1-PDC cell line growth inhibition [CLK];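 for viability, T/C: drug exposure lasted seven days before viability readout; 100% = DMSO vehicle control wells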
Conditions: second compound 0.316 µM; first compound 0.0316 µM; stronger effect = lower value
Hi there, I'd appreciate the recorded viability, T/C for every entry that follows.
Give just the numeric value; % need not be written.

Ask: Tell us which viability, T/C value is on record for O=c1[nH]cc(F)c(=O)[nH]1 + CN1CCN(c2cc(C(=O)Nc3cc4cc(-c5cnn(C)c5)ccc4cn3)ccn2)CC1
Reply: 40.7

Ask: Recall and state the measured viability, T/C for CC1COCCN1c1cc(C2(S(C)(=N)=O)CC2)nc(-c2ccnc3[nH]ccc23)n1 (stereo not drawn) + CN1CCN(c2cc(C(=O)Nc3cc4cc(-c5cnn(C)c5)ccc4cn3)ccn2)CC1 .
Reply: 33.3

Ask: Give a short answer stating reported viability, T/C for COc1cccc2c1C(=O)c1c(O)c3c(c(O)c1C2=O)CC(O)(C(=O)CO)CC3OC1CC(N)C(O)C(C)O1 (stereo not drawn) + CNC(=O)c1ccc(Nc2nc(OC3CCCC3)c3c(-c4ccc5nc(C)oc5c4)c[nH]c3n2)c(OC)c1 .
Reply: 16.4
